The reported measurements were obtained from ChEMBL document CHEMBL3352278.

System: Human immunodeficiency virus 1
measurement_protocol: Antiviral activity against wild-type HIV1 3B infected in human MT4 cells assessed as inhibition of viral cytopathic effect by MTT assay
Type: functional, organism-based
experimental_conditions: Human immunodeficiency virus 1, 3B
pEC50: −log10 of the molar value.
measure_name: pEC50

structure_string: O=C(NCc1cccc(Cl)c1F)c1nc(-c2ccc(F)cc2)[nH]c(=O)c1O
system_name: Human immunodeficiency virus 1
meas_value: 5.58
//
structure_string: O=C(NCc1ccc(O)cc1)c1nc(-c2ccc(F)cc2)[nH]c(=O)c1O
system_name: Human immunodeficiency virus 1
meas_value: 5.17
//
structure_string: O=C(NCc1cc(F)c(F)c(F)c1)c1nc(-c2ccc(F)cc2)[nH]c(=O)c1O
system_name: Human immunodeficiency virus 1
meas_value: 5.33
//
structure_string: O=C(NCc1ccc(F)c(F)c1)c1nc(-c2ccc(F)cc2)[nH]c(=O)c1O
system_name: Human immunodeficiency virus 1
meas_value: 5.29
//
structure_string: O=C(NCc1ccc(Br)cc1)c1nc(-c2ccc(F)cc2)[nH]c(=O)c1O
system_name: Human immunodeficiency virus 1
meas_value: 4.96

====

Recorded IC50 by entry
system_name: Human immunodeficiency virus type 1 integrase (Human immunodeficiency virus 1, UniProt Q7ZJM1)
Sequence (Q7ZJM1 whole entry): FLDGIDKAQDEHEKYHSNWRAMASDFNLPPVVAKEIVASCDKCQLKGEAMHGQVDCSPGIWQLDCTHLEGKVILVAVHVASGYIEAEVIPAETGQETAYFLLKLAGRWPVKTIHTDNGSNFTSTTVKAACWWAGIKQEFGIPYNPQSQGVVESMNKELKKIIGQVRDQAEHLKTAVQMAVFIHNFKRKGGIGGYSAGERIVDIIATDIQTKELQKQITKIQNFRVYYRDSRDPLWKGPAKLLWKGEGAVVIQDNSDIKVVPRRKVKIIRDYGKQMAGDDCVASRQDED
measurement_protocol: Inhibition of HIV1 recombinant wild type integrase 3'-processing activity by gel-based assays

structure_string: O=C(NCc1ccc(F)cc1)c1nc(-c2ccccc2F)[nH]c(=O)c1O
IC50: 16 µM

structure_string: O=C(NCc1ccc(F)cc1)c1nc(-c2ccccc2)[nH]c(=O)c1O
IC50: 17 µM

structure_string: O=C(NCc1ccc(F)cc1)c1nc(Cc2ccc(F)cc2)[nH]c(=O)c1O
IC50: > 20 µM

structure_string: COc1ccc(CNC(=O)c2nc(-c3ccc(F)cc3)[nH]c(=O)c2O)cc1
IC50: 16 µM

structure_string: O=C(NCc1ccc(F)cc1)c1nc(-c2ccc(Cl)cc2)[nH]c(=O)c1O
IC50: 5 µM

structure_string: O=C(NCc1ccc(F)cc1)c1nc(-c2ccc(F)cc2)[nH]c(=O)c1O
IC50: 12 µM

structure_string: O=C(NCc1ccccc1)c1nc(-c2ccccc2)nc(O)c1O
IC50: > 20 µM

structure_string: O=C(NCc1ccccc1F)c1nc(-c2ccc(F)cc2)[nH]c(=O)c1O
IC50: 20 µM

structure_string: O=C(NCc1ccc(O)cc1)c1nc(-c2ccc(F)cc2)[nH]c(=O)c1O
IC50: > 20 µM

structure_string: Cc1ccc(CNC(=O)c2nc(-c3ccc(F)cc3)[nH]c(=O)c2O)cc1C
IC50: 16 µM

structure_string: O=C(NCc1ccc(F)c(Cl)c1)c1nc(-c2ccc(F)cc2)[nH]c(=O)c1O
IC50: 6 µM

structure_string: O=C(NCc1cccc(Cl)c1)c1nc(-c2ccc(F)cc2)[nH]c(=O)c1O
IC50: 20 µM

structure_string: O=C(NCc1cc(F)c(F)c(F)c1)c1nc(-c2ccc(F)cc2)[nH]c(=O)c1O
IC50: 14 µM

structure_string: O=C(NCc1ccc(F)cc1)c1nc(-c2ccc(Br)cc2)[nH]c(=O)c1O
IC50: 3 µM

structure_string: O=C(NCc1ccc(Br)cc1)c1nc(-c2ccc(F)cc2)[nH]c(=O)c1O
IC50: 11 µM

structure_string: O=C(NCCc1ccc(F)cc1)c1nc(-c2ccc(F)cc2)[nH]c(=O)c1O
IC50: 17 µM

structure_string: O=C(NCc1ccc(F)cc1)c1nc(-c2cccc(F)c2)[nH]c(=O)c1O
IC50: 5 µM

structure_string: O=C(NCc1ccc(Cl)cc1)c1nc(-c2ccc(F)cc2)[nH]c(=O)c1O
IC50: 9 µM

structure_string: O=C(NCc1cccc(Cl)c1F)c1nc(-c2ccc(F)cc2)[nH]c(=O)c1O
IC50: 13 µM

structure_string: O=C(NCc1cccc(F)c1)c1nc(-c2ccc(F)cc2)[nH]c(=O)c1O
IC50: 20 µM

structure_string: O=C(NCc1ccc(F)c(F)c1)c1nc(-c2ccc(F)cc2)[nH]c(=O)c1O
IC50: 17 µM
